Cited source: ChEMBL document CHEMBL1156230

experiment: Plasma concentration in high fat/high cholesterol fed LDLR-deficient mouse at 3 mg/kg, qd administered with diet for 8 weeks measured after 3 hrs of last dose; type: ADME, organism-based; design: dose 3 mg/kg; settings: po
measured_parameter: concentration at 3 h (ng/mL)
Numbers only, in ng/mL.

Prompt: Param item = Cc1nc2c(C(F)(F)F)cccc2nc1-c1ccc(-c2cccc(S(C)(=O)=O)c2)cc1 ; retrieve measured concentration at 3 h.
Response: 10800

====

assay: AUC (0 to infinity) in C57 mouse at 10 mg/kg, po; type: ADME, organism-based; parameters: time infinity, dose 10 mg/kg, route oral; conditions: plasma
measured_parameter: AUC(0-inf) (ng·h/mL)
Numbers only, in ng·h/mL.

Prompt: Param item = Cc1nc2c(C(F)(F)F)cccc2nc1-c1ccc(-c2cccc(S(C)(=O)=O)c2)cc1 ; retrieve measured AUC(0-inf).
Response: 2440
